List of cytotoxicity at 10 µM values.
Assay: Toxicity liver stage against HepG2, at 10uM
Assay type: cell-based
Set-up: test concentration 10 uM, cell line HepG2-A16-CD81EGFP
Conditions: human, HepG2-A16-CD81EGFP cells; read-out: INHIBITION
Reply with just the number (in %).

Worked examples follow.
COMPOUND	cytotoxicity at 10 µM [%]
CC(C)NC(=O)N1CCc2ncc(CN3CCOCC3)n2CC1	6.28
CC(CCNC(=O)NCCNc1cnccn1)c1ccccc1 (configuration not stated)	-4.08
CCn1cc(S(=O)(=O)N2CCCC3(CC=CNC3=O)C2)c(C)n1 (configuration not stated)	-7.56

Qu. What value of cytotoxicity at 10 µM has been reported for the following compound? Cc1cc(Br)ccc1NCC(=O)Nc1cc(C(C)(C)C)no1
Ans. 5.09

Qu. What value of cytotoxicity at 10 µM has been reported for the following compound? Cc1nsc(N2CCN(CC(=O)NCc3cccnc3)CC2)n1
Ans. -4.52

Qu. What value of cytotoxicity at 10 µM has been reported for the following compound? COc1ccc(-c2cn3c(n2)CO[C@@H](CNCc2nccn2C)C3)cc1
Ans. -0.765

Qu. What value of cytotoxicity at 10 µM has been reported for the following compound? CCCN1CCC2(C1)c1ccccc1S(=O)(=O)N2Cc1ccccc1 (configuration not stated)
Ans. 16.7

Qu. What value of cytotoxicity at 10 µM has been reported for the following compound? Cc1cc(C)c(C(=O)N2CCOC(CCN(C)C)C2)o1 (configuration not stated)
Ans. -1.92

Qu. What value of cytotoxicity at 10 µM has been reported for the following compound? CC(=O)c1cccc(S(=O)(=O)NCCNC(=O)c2snnc2C)c1
Ans. -0.302

Qu. What value of cytotoxicity at 10 µM has been reported for the following compound? CCn1c(N)nc2cc(C(=O)NCCc3nnc(C)s3)cnc21
Ans. -2.46

Qu. What value of cytotoxicity at 10 µM has been reported for the following compound? NC(=O)C1CCN(C(=O)NCCNc2ccccn2)CC1
Ans. -12.8

Qu. What value of cytotoxicity at 10 µM has been reported for the following compound? Cc1nc(CNc2nc3c(s2)c(C)nn3C)cs1
Ans. -109

====

Assay: Toxicity liver stage against HepG2, at 10uM
Format: cell-based
Parameters: test concentration 10 uM, cell line HepG2-A16-CD81EGFP
Conditions: human, HepG2-A16-CD81EGFP cells; read-out: INHIBITION
PARAMETER: cytotoxicity at 10 µM (%)
Reply with just the number (in %).

Worked examples follow.
COMPOUND	cytotoxicity at 10 µM, %
Cc1nnc2n1CCN(CCOc1ccccc1C#N)C2	-4.53
CCS(=O)(=O)N1CCC(c2nc3ccc(-c4ccccc4)cn3n2)CC1	-7.41
Cc1ccc(N2C[C@@H](CN3CCOCC3)[C@@H](CO)C2)nn1	7.13
Cc1noc(C)c1-c1cccc(CC2CCN(C(=O)c3cscn3)C2)n1 (stereo unspecified)	-6.66
CC(C)n1cc(C(=O)NC2CCS(=O)(=O)C2)c2ccccc2c1=O (stereo unspecified)	1.85

Please examine the following record next.
Qu. What value of cytotoxicity at 10 µM has been reported for the following compound? Cc1cccc(CN2C[C@@H]3CN(C(=O)c4ccsc4)C[C@@H]3C2=O)c1
Ans. -18.8

====

Assay: Toxicity liver stage against HepG2, at 10uM
Assay type: cell-based
Parameters: test concentration 10 uM, cell line HepG2-A16-CD81EGFP
Conditions: human, HepG2-A16-CD81EGFP cells; read-out: INHIBITION
PARAMETER: cytotoxicity at 10 µM (%)
Reply with just the number (in %).

MOLECULE	cytotoxicity at 10 µM (%)
CC(C)(C)c1cnc(CN2CCC(CO)CC2)o1	-5.6
CN(CC(=O)N1CC(C)(C)[C@@](C)(O)C1)Cc1ccncc1	-49.4
CNc1ccnc(N2CCCC(C(=O)c3ccccn3)C2)n1 (centres undefined)	-12.1

Please examine the following record next.
Qu. What value of cytotoxicity at 10 µM has been reported for the following molecule? Cc1cc(Oc2ccccc2C)nc(C2CCCN2)n1 (centres undefined)
Ans. 1.22

====

Assay: Toxicity liver stage against HepG2, at 10uM
Format: cell-based
Parameters: test concentration 10 uM, cell line HepG2-A16-CD81EGFP
Conditions: human, HepG2-A16-CD81EGFP cells; read-out: INHIBITION
List of cytotoxicity at 10 µM values.
Reply with just the number (in %).

Worked examples follow.
MOLECULE	VALUE
COc1ccc(C2=CCN(C(=O)CN(C)Cc3ccco3)CC2)cc1	-6.16
O=C(O)[C@@H]1CN(C(=O)Cc2ccccc2Cl)C[C@H]1C1CC1	9.53
Cc1cc(C)n(CC2CN(Cc3noc(C4CC4)n3)CCO2)n1 (stereo unspecified)	2.79
CCc1nn(C)c(Cl)c1CN1CCC2(C1)CN(C)C(=O)O2 (stereo unspecified)	1.95
Cc1nn(C)c2c(NCCCn3cccn3)nc(C3CC3)nc12	12.9
O=C(N1CCCO1)[C@@]12CCO[C@@H]1CCN(Cc1ccccc1)C2	-13.6
CC(C)c1nnc(NC(=O)CCC(=O)NCC2CCCO2)s1 (stereo unspecified)	-9.58
Cc1nccn1CCCC(=O)N1CCC(N(C)c2cccnn2)CC1	-13.4
N[C@H]1CN(C(=O)c2ccccc2Oc2ccccc2)C[C@@H]1C1CC1	-0.948
Cc1cccc(CN2CCn3c(COc4ncccn4)nnc3C2)n1	-1.35

Please examine the following record next.
Qu. What value of cytotoxicity at 10 µM has been reported for the following molecule? COc1ccc(C(=O)N2CCC(Oc3ccccc3C)(C(=O)O)CC2)o1
Ans. 13.2

====

List of cytotoxicity at 10 µM values.
Test: Toxicity liver stage against HepG2, at 10uM
Assay type: cell-based
Design: test concentration 10 uM, cell line HepG2-A16-CD81EGFP
Settings: human, HepG2-A16-CD81EGFP cells; read-out: INHIBITION
Reply with just the number (in %).

Worked examples follow.
COMPOUND	UNIT	cytotoxicity at 10 µM
O=C(CN1CCN(C(=O)Cc2ccc3c(c2)OCCO3)CC1)NC1CC1	%	-2.35
O=C(NCCN1CCCCCC1=O)c1n[nH]c(=O)c2ccccc12	%	-4.38
COCC1CN(C(=O)Nc2cc(Br)ccc2F)CCO1 (stereo unspecified)	%	-0.749
CCn1cc(N)c(-c2nnc3n2CCCC3)n1	%	-8.72
CSc1ccc(Cl)c(C(=O)N2CCCC(CNS(C)(=O)=O)C2)c1 (stereo unspecified)	%	-5.92

Please examine the following record next.
Qu. What value of cytotoxicity at 10 µM has been reported for the following compound? CC(C)NC(=O)N1CCOC2(CCCNC2)C1 (stereo unspecified)
Ans. 4.76

====

Experiment: Toxicity liver stage against HepG2, at 10uM
Format: cell-based
Design: test concentration 10 uM, cell line HepG2-A16-CD81EGFP
Details: human, HepG2-A16-CD81EGFP cells; read-out: INHIBITION
PARAMETER: cytotoxicity at 10 µM (%)
Reply with just the number (in %).

COMPOUND	cytotoxicity at 10 µM [%]
Cc1ccccc1C(=O)N1C[C@@H]2C[C@@H](C)O[C@@H]2C1	0.995

Qu. What value of cytotoxicity at 10 µM has been reported for the following compound? CN1CC2(CCCN(Cc3nnc(-c4ccccc4)o3)CC2)OC1=O (stereo unspecified)
Ans. 0.184

Qu. What value of cytotoxicity at 10 µM has been reported for the following compound? C[C@@H](O)[C@H](NC(=O)c1csc2nc(-c3ccccc3F)cn12)C(N)=O
Ans. 2.37

Qu. What value of cytotoxicity at 10 µM has been reported for the following compound? Cc1ccc(CN2C[C@@H]3COC[C@]3(COc3ccc(C#N)cn3)C2)o1
Ans. 0.777

Qu. What value of cytotoxicity at 10 µM has been reported for the following compound? COc1cc(C(=O)N(Cc2ccc(F)cc2)C2CC2)cc2c1OCCO2
Ans. -1.33

Qu. What value of cytotoxicity at 10 µM has been reported for the following compound? CN1CC[C@H](N(Cc2ccccc2)CC2CC2)C[C@H](O)C1
Ans. -1.47

Qu. What value of cytotoxicity at 10 µM has been reported for the following compound? O=S1(=O)NC(C2CCN(Cc3ccccn3)CC2)Nc2ccccc21 (stereo unspecified)
Ans. -33.6

Qu. What value of cytotoxicity at 10 µM has been reported for the following compound? Cc1cc(C)n(C2CN(CCC(=O)NC3CCCCC3)C2)n1
Ans. 1.04

Qu. What value of cytotoxicity at 10 µM has been reported for the following compound? CC1Cn2c(nc3c2c(=O)[nH]c(=O)n3C)O1 (stereo unspecified)
Ans. 1.26

Qu. What value of cytotoxicity at 10 µM has been reported for the following compound? CC(C)=CCN1CCC(c2nccn2Cc2cscn2)CC1
Ans. -13

Qu. What value of cytotoxicity at 10 µM has been reported for the following compound? Cc1cccc(C(=O)N2C[C@@H]3OCCN(C(C)C)[C@@H]3C2)n1
Ans. -9.2

Reference source for all entries: ChEMBL document CHEMBL4513216
